target: central benzodiazepine receptor
assay.name: Binding at the central benzodiazepine receptor (competition of specific binding)
condition.context: rat cerebral cortex; inhibition constant calculated from competition curves
value.kind: Ki (nM)

O=C(O[C@@H]1c2nccnc2C(=O)N1c1ccc(Cl)cn1)N1CCNCC1 [(−)-N-desmethylzopiclone]    5960
O=C(OC1c2nccnc2C(=O)N1c1ccc(Cl)cn1)N1CCNCC1 (racemic) [(±)-N-desmethylzopiclone]    924
CN1C(=O)CN=C(c2ccccc2)c2cc(Cl)ccc21 [Diazepam, reference compound]    10
O=C(O[C@H]1c2nccnc2C(=O)N1c1ccc(Cl)cn1)N1CCNCC1 [(+)-N-desmethylzopiclone]    458

---

target: central benzodiazepine receptor
assay.name: Binding at the central benzodiazepine receptor (competition of specific binding)
condition.context: rat cerebral cortex; 10 concentrations in duplicate; nonlinear regression
pIC50: −log10 of the molar value.
The entries below come with measured pIC50 values attached.
value.kind: pIC50

CN1C(=O)CN=C(c2ccccc2)c2cc(Cl)ccc21 [Diazepam, reference compound]    7.92
O=C(O[C@@H]1c2nccnc2C(=O)N1c1ccc(Cl)cn1)N1CCNCC1 [(−)-N-desmethylzopiclone]    5.15
O=C(OC1c2nccnc2C(=O)N1c1ccc(Cl)cn1)N1CCNCC1 (racemic) [(±)-N-desmethylzopiclone]    5.96
O=C(O[C@H]1c2nccnc2C(=O)N1c1ccc(Cl)cn1)N1CCNCC1 [(+)-N-desmethylzopiclone]    6.26
